experimental.readout: melting point

Answered examples (6):
O=[N+]([O-])c1ccc(-c2nn(Cc3cccc(Cl)c3)c(=S)[nH]2)cc1 | 256 to 258 °C
COc1ccc(-c2nn(Cc3ccccc3)c(=S)[nH]2)cc1 | 235 to 237 °C
N#Cc1ccc(-c2nn(Cc3ccccc3)c(=S)[nH]2)cc1 | 237 to 238 °C
S=c1[nH]c(-c2ccc(Oc3ccccc3)cc2)nn1Cc1cccc(Cl)c1 | 183 to 184 °C
S=c1[nH]c(-c2cccc(Cl)c2Cl)nn1Cc1ccccc1 | 179 to 180 °C
S=c1[nH]c(-c2cccnc2Cl)nn1Cc1ccccc1 | 155 to 156 °C

Query: Which melting point is listed for COc1ccc(-c2nn(Cc3cccc(Cl)c3)c(=S)[nH]2)cc1 ?
Response: 231 to 233 °C

Query: Same question for S=c1[nH]c(-c2cncnc2)nn1Cc1cccc(Cl)c1 please.
Response: 204 to 207 °C

Query: And then COC(=O)c1ccccc1-c1nn(Cc2ccccc2)c(=S)[nH]1 , what is it?
Response: 129 to 130 °C

Query: Item: O=[N+]([O-])c1ccccc1-c1nn(Cc2ccccc2)c(=S)[nH]1
Response: 147 to 148 °C

Query: And then Cc1ccccc1-c1nn(Cc2ccccc2)c(=S)[nH]1 , what is it?
Response: 150 to 153 °C

Query: Same for N#Cc1cccc(Cn2nc(-c3ccccc3Cl)[nH]c2=S)c1
Response: 161 to 163 °C

Query: Proceed to S=c1[nH]c(-c2cc(Cl)sc2Cl)nn1Cc1ccccc1
Response: 160 to 162 °C

----------
Reported melting point values for a set of compounds

Illustrative cases are given below, each with its answer.
Fc1ccc(-c2nn(Cc3ccccc3)c(=S)[nH]2)c(Cl)c1 [Example 22] | 135 to 136 °C
S=c1[nH]c(-c2ccc(Br)cc2)nn1Cc1ccccc1 [Example 26] | 250 to 251 °C
S=c1[nH]c(-c2ccccc2Cl)nn1Cc1cccc(Oc2ccccc2)c1 [Example 52] | 137 to 138 °C
FC(F)(F)c1ccc(-c2nn(Cc3ccccc3)c(=S)[nH]2)cc1 [Example 21] | 201 to 203 °C
COc1ccccc1-c1nn(Cc2ccccc2)c(=S)[nH]1 [Example 18] | 142 to 143.5 °C
Cc1ccc(-c2nn(Cc3ccccc3)c(=S)[nH]2)cc1 [Example 24] | 234 to 235 °C

Query: Data request, read-out melting point, for Oc1cccc(Cn2nc(-c3ccccc3)[nH]c2=S)c1 [Example 35]
Response: 233 to 235 °C

Query: // next record S=c1[nH]c(-c2ccc(Cl)cc2Cl)nn1CCc1ccccc1 [Example 44]
Response: 179 to 182 °C

Query: Then what about the compound S=c1[nH]c(-c2ccc(Cl)cc2Cl)nn1Cc1ccccc1 [Example 27] ?
Response: 169 to 170 °C
